Tested on: E. coli F1Fo ATP synthase (F1-ATPase) (Escherichia coli, UniProt P0ABA6+P0ABB0+P0ABB4)
Construct: with F1 alpha (atpA), gamma (atpG), delta and epsilon subunits; Fo (ab2c10–14) in the membrane preparation
Test: ATPase activity assay (liberated Pi) on purified F1 and F1Fo membranes; reversal by dilution or centrifuge column
pIC50: −log10 of the molar value.
Observation type: pIC50

# input compound: CC1=CC(=O)C(C(C)C)=CC1=O [TQ, thymoquinone] ; wanted: its pIC50
~4.43
